// provenance: paper PMC12216052

- tested_on: ACVR2A (Homo sapiens (Human), UniProt P27037)
- Sequence (P27037 25-118): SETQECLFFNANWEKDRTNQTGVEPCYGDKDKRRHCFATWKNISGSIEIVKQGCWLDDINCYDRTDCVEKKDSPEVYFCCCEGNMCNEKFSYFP
- method_notes: SPR steady state, receptor-Fc on chip, monomer analyte
measurement_label: Kd

Recorded result, DLK1 (protein) VANSCTPNPCENDGVCTDIGGDFRCRCPAGFIDKTCSRPVTNCASSPCQNGGTCLQHTQVSYECLCKPEFTGLTCVKK , Kd: > 10 µM
